Test system: human APOE RNA
Experiment: Dose-dependent inhibition of human APOE RNA in HepG2 cells, electroporation, 50,000 cells per well, RT-PCR normalized to GAPDH (Example 4, Tables 8-10)
Assay type: cell-based
Conditions: 205 nM; HepG2, electroporation, 16-hour treatment
Strand notation (5' to 3'): a small letter for the sugar, then the base; units joined by * are phosphorothioate-linked, units joined directly phosphodiester-linked; [ ] holds rarer units or linkages, { } end groups; capitals alone tell only the bases. [ms] = mesyl phosphoramidate linkage; e = 2'-O-(2-methoxyethyl) (MOE); k = constrained ethyl (cEt); [5mC] = 5-methylcytosine; d = 2'-deoxy (DNA)
READOUT_TYPE: APOE RNA (% UTC)
Just the number please, in % UTC, no unit attached.

Consider the reported APOE RNA (% UTC) for these substances:
INSERT INTO results (substance, readout_type, obs_value) VALUES
  ('1766559 (eT*eTeGeGeT*dG[ms]dA[ms]dA[ms]dT*d[5mC]*dT*dT*dT[ms]dA[ms]dT*kTkAeA*eA*e[5mC]; antisense) [Compound 1766559]', 'APOE RNA (% UTC)', 46),
  ('1757581 (eT*eTeGeGkT*dG*dA*dA*dT*d[5mC]*dT*dT*dT*dA*dT*eTeAeA*eA*e[5mC]; antisense) [Compound 1757581]', 'APOE RNA (% UTC)', 76);

Now consider the entry below.
IN: Could you share which APOE RNA (% UTC) value was measured for 1757562: mixed MOE/cEt gapmer TTGGTGAATCTTTATTAA, sugar eeeekddddddddkkeee, linkages soossssssssssooss (eT*eTeGeG*kT*dG*dA*dA*dT*d[5mC]*dT*dT*dT*kAkTeT*eA*eA) [compound 1757562] ?
OUT: 52
